biological target: T1, ZIKV-VLP (Native Antigen Inc.) (Zika virus); assay: BLI binning on ZIKV-VLP; 1st mAb: 260-2
T1 construct: also called Zika VLP; ZVLP
READOUT: response of 2nd mAb

>  <BINDER>
anti-ZIKV antibody 242-3 (antibody, V domains shown, also called clone 242-3) VH: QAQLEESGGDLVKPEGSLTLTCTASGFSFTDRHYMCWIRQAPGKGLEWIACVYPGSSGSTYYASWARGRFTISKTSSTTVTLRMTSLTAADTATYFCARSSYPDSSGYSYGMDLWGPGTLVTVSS VL: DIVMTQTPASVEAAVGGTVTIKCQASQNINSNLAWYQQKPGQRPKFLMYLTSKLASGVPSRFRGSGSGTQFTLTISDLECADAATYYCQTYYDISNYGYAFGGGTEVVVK

>  <READOUT>
response of 2nd mAb

>  <QUANTITATIVE RESULT>
0.06

$$$$
>  <BINDER>
anti-ZIKV antibody 11-3 (antibody, V domains shown, also called clone 11-3) VH: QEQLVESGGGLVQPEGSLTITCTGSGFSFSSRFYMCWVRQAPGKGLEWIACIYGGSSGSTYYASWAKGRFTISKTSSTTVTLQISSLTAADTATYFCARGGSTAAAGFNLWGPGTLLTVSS VL: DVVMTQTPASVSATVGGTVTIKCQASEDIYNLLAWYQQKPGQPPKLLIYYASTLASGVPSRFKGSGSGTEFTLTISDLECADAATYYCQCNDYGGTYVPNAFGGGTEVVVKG

>  <READOUT>
response of 2nd mAb

>  <QUANTITATIVE RESULT>
0.47

$$$$
>  <BINDER>
anti-ZIKV antibody 78-2 (antibody, V domains shown, also called clone 78-2) VH: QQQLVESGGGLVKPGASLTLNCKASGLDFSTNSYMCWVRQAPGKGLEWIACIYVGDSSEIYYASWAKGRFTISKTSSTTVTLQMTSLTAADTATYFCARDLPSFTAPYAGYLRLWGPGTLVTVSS VL: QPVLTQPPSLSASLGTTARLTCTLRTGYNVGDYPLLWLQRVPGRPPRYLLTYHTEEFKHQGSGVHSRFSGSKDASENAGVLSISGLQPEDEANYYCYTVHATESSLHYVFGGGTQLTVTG

>  <READOUT>
response of 2nd mAb

>  <QUANTITATIVE RESULT>
0.33

$$$$
